system: SW-620; experiment: NCI tumour cell line growth inhibition, 48 h
The source made the active and inactive calls. No stated cut-off is given here; in the data, active = GI50 up to about 1.1 µM and inactive = higher.
Possible outcomes: active, inactive

- COMPOUND: "C/C1=C/C(C)CC(C)OC(=O)C(C)NC(=O)C(Cc2ccc(O)c(I)c2)N(C)C(=O)CNC(=O)C(C)C1 (stereo not drawn)"
  ASSIGNED CLASS: "active"
- COMPOUND: "O=C(O)/C(O)=C\\C(=O)c1ccc(Br)cc1"
  ASSIGNED CLASS: "inactive"
- COMPOUND: "CC(=O)c1c(-c2ccc(Cl)cc2)c(C#N)c(=S)n(C2OC(CO)C(O)C(O)C2O)c1-c1ccccc1 (stereo not drawn)"
  ASSIGNED CLASS: "inactive"
- COMPOUND: "CN1CC[C@@]2(c3cccc(O)c3)CC(=O)/C(=C/c3ccccc3)[C@H]1C2.[O-][Cl+3]([O-])([O-])O"
  ASSIGNED CLASS: "inactive"
- COMPOUND: "COC(=O)c1cc(C)ccc1C1CN=NC12Cc1ccc(C)cc1C2=O (stereo not drawn)"
  ASSIGNED CLASS: "inactive"
- COMPOUND: "C=C(C)C1CC=C(C)C2(C1)OCC(C)(C)C(C)O2 (stereo not drawn)"
  ASSIGNED CLASS: "inactive"
- COMPOUND: "C[N+]12CCCCC1C(COc1cccc3cccnc13)CCC2 (stereo not drawn)"
  ASSIGNED CLASS: "inactive"
- COMPOUND: "CO/N=C(/C)c1cccc(Nc2nc3ccc(Cl)cc3c3[nH]c4ccccc4c23)c1"
  ASSIGNED CLASS: "inactive"
- COMPOUND: "NCCNc1ccc(NCCN)c2c1C(=O)c1c(O)ccc(O)c1C2=O"
  ASSIGNED CLASS: "active"
- COMPOUND: "COc1cc(C(=O)C/C(CCC(=O)Nc2ccc(Cl)cc2Cl)=N/NC(=O)C(N)=O)ccc1O"
  ASSIGNED CLASS: "inactive"
- COMPOUND: "C/C(CC(=O)Nc1ccc(Cl)cc1)=N\\NC(=O)C[n+]1ccccc1"
  ASSIGNED CLASS: "inactive"
- COMPOUND: "CCCOCN1COCN/C1=N\\C#N"
  ASSIGNED CLASS: "inactive"
- COMPOUND: "CC1C2CC(C(S(=O)(=O)N3CCOCC3)/C2=N\\O)C1(C)C (stereo not drawn)"
  ASSIGNED CLASS: "inactive"
- COMPOUND: "O=C(O)C1(Cc2ccc3c(c2)CCC3)Cc2ccccc2C1"
  ASSIGNED CLASS: "inactive"
- COMPOUND: "CN(CCN)[C@H](CSSC[C@@H](c1ccccc1O)N(C)CCN)c1ccccc1O"
  ASSIGNED CLASS: "inactive"
- COMPOUND: "O=C1Nc2ccc(Br)cc2C1=Nc1cccnc1"
  ASSIGNED CLASS: "inactive"
- COMPOUND: "NS(=O)(=O)c1ccc(CNC(=S)NC(=O)Nc2ccc(Cl)c(Cl)c2)cc1"
  ASSIGNED CLASS: "inactive"
- COMPOUND: "CC1=NN(C(=O)CC(=O)Nc2cccc(Cl)c2)C(=O)C1/N=N/c1ccc(C(=O)O)cc1 (stereo not drawn)"
  ASSIGNED CLASS: "inactive"
- COMPOUND: "COc1ccc(C(=O)Nc2ccc(S(=O)(=O)NCC(=O)O)cc2)cc1"
  ASSIGNED CLASS: "inactive"
- COMPOUND: "C=CCc1[nH]c2c(OCc3ccccc3)cc(N(CC=C)C(C)=O)cc2c1C"
  ASSIGNED CLASS: "inactive"
- COMPOUND: "N#Cc1nnn(-c2ccccc2)c1O"
  ASSIGNED CLASS: "inactive"
- COMPOUND: "C=C(COCO)C(C)=O"
  ASSIGNED CLASS: "inactive"
- COMPOUND: "O=C(N/C(=C\\c1ccc([N+](=O)[O-])cc1)c1nc2cc(Cl)ccc2[nH]1)c1ccccc1"
  ASSIGNED CLASS: "inactive"
- COMPOUND: "Cc1cc(C)n(C(=CC(=O)C(Cl)Cl)n2nc(C)cc2C)n1"
  ASSIGNED CLASS: "inactive"
- COMPOUND: "CCNC(=O)COc1ccc(Cl)cc1Cl"
  ASSIGNED CLASS: "inactive"
- COMPOUND: "Cc1cc(NS(=O)(=O)c2ccc(Nc3c4ccccc4nc4ccc(C(=O)Nc5ccc(S(=O)(=O)N=C(N)N)cc5)cc34)cc2)no1"
  ASSIGNED CLASS: "inactive"
- COMPOUND: "N#CC1(C#N)NC(c2cccs2)C(C#N)(C#N)NC1c1cccs1 (stereo not drawn)"
  ASSIGNED CLASS: "inactive"
- COMPOUND: "CCc1c(Cc2cc(C)cc(C)c2)n2c(nc1=O)SCC2CBr (stereo not drawn)"
  ASSIGNED CLASS: "inactive"
- COMPOUND: "c1csc(-c2nccc3c2[nH]c2ccccc23)c1"
  ASSIGNED CLASS: "inactive"
- COMPOUND: "COc1cc2c(cc1OC)[C@@H]([C@H](O)c1ccccc1)NCC2"
  ASSIGNED CLASS: "inactive"
- COMPOUND: "Cc1ccc(S(=O)(=O)N2CCc3cc(O)c([N+](=O)[O-])cc32)cc1"
  ASSIGNED CLASS: "inactive"
- COMPOUND: "Nc1ncnc2c1ncn2C1OC(CO)=CC1O (stereo not drawn)"
  ASSIGNED CLASS: "inactive"
- COMPOUND: "C=CCNC(=O)CN(CC(=O)O)C1CCCCC1N(CC(=O)O)CC(=O)O (stereo not drawn)"
  ASSIGNED CLASS: "inactive"
- COMPOUND: "O=C(CCCN1CCC2(CC1)CC(c1ccccc1)OC2=O)c1ccc(F)cc1 (stereo not drawn)"
  ASSIGNED CLASS: "inactive"
- COMPOUND: "C=CC(O)(CBr)CCC(Br)C(=C)C (stereo not drawn)"
  ASSIGNED CLASS: "inactive"
- COMPOUND: "Cc1ccccc1NC(=O)/C=N/O"
  ASSIGNED CLASS: "inactive"
- COMPOUND: "CS/C(=N\\c1ccccc1Cl)NC(=O)c1ccc(Br)cc1"
  ASSIGNED CLASS: "inactive"
- COMPOUND: "COc1cc(CCc2cccnc2)cc(OC)c1OC"
  ASSIGNED CLASS: "inactive"

====

system: NCI-H460; assay: NCI tumour cell line growth inhibition, 48 h
Active and inactive are the calls of the source. Cut-off read from the data, not from the text of the source: active = GI50 up to about 1.1 µM and inactive = higher.
Classes used: T for active, F for inactive

- COMPOUND: "CC(C)OC(=O)C1Cc2c([nH]c3ccccc23)C(c2ccccc2)N1 (centres undefined)"
  ASSIGNED CLASS: "F"
- COMPOUND: "COC(=O)c1c(OC(C)=O)ccc2c1c1c(n2C)C(=O)c2ccccc2C1=O"
  ASSIGNED CLASS: "F"
- COMPOUND: "Nc1ncnc2c1ncn2C1OC(CO)=CC1O (centres undefined)"
  ASSIGNED CLASS: "F"
- COMPOUND: "NCCNc1ccc(NCCN)c2c1C(=O)c1c(O)ccc(O)c1C2=O"
  ASSIGNED CLASS: "T"

====

tested on: CCRF-CEM; experiment: NCI tumour cell line growth inhibition, 48 h
Active and inactive are the calls of the source. No stated cut-off is given here; in the data, active = GI50 up to about 1.1 µM and inactive = higher.
Known GI50 of a selection of compounds

- COMPOUND: "O=P(O)(O)c1ccc(-c2ccc(I)cc2)cc1"
  TARGET ENTITY: "CCRF-CEM"
  GI50: "> 100 µM (inactive)"
- COMPOUND: "C=C(C)C1CC=C(C(=O)O)CC1 (stereo not given)"
  TARGET ENTITY: "CCRF-CEM"
  GI50: "863 µM (inactive)"
- COMPOUND: "O=C(O)/C(O)=C\\C(=O)c1ccc(Br)cc1"
  TARGET ENTITY: "CCRF-CEM"
  GI50: "68.7 µM (inactive)"
- COMPOUND: "O=C1CC(Br)c2c(Br)sc(Br)c21 (stereo not given)"
  TARGET ENTITY: "CCRF-CEM"
  GI50: "2.51 µM (inactive)"
- COMPOUND: "C[N+](C)(C)CC(=O)N/N=C(\\CCC(=O)NCCc1ccccc1)CC(=O)c1ccccc1"
  TARGET ENTITY: "CCRF-CEM"
  GI50: "> 100 µM (inactive)"

====

system: NCI-H460; assay: NCI tumour cell line growth inhibition, 48 h
Active and inactive are the calls of the source. Cut-off read from the data, not from the text of the source: active = GI50 up to about 1.1 µM and inactive = higher.
As shown below, each of these molecules has a reported GI50 value.
ENDPOINT: GI50

- MOLECULE: "CCc1c(Cc2cc(C)cc(C)c2)n2c(nc1=O)SCC2CBr (stereo not drawn)"
  RESULT: "> 50 µM (inactive)"
- MOLECULE: "C=CCc1[nH]c2c(OCc3ccccc3)cc(N(CC=C)C(C)=O)cc2c1C"
  RESULT: "14.8 µM (inactive)"
- MOLECULE: "C=CCOC1OC(CS(=O)(=O)O)C(OC(C)=O)C(OC(C)=O)C1OC(C)=O (stereo not drawn)"
  RESULT: "> 100 µM (inactive)"
- MOLECULE: "CC(=O)OCC1OC(N2C(=O)C(=O)c3ccccc32)C(OC(C)=O)C(OC(C)=O)C1OC(C)=O (stereo not drawn)"
  RESULT: "> 100 µM (inactive)"
- MOLECULE: "Cn1c(=O)n2n(c1=O)[C@@H](c1ccccc1)[C@H]2c1ccccc1"
  RESULT: "> 100 µM (inactive)"
- MOLECULE: "COc1ccc(C(=O)Nc2ccc(S(=O)(=O)NCC(=O)O)cc2)cc1"
  RESULT: "> 100 µM (inactive)"
- MOLECULE: "Cc1cc(C)c2c(n1)S(=O)(=O)N(CCCN1CCN(c3cccc(Cl)c3)CC1)C(C(=O)c1ccccc1)=C2O"
  RESULT: "18.5 µM (inactive)"
- MOLECULE: "CCOP(=O)(OCC)/C(C#N)=C/c1cnc[nH]1"
  RESULT: "> 100 µM (inactive)"
- MOLECULE: "Cc1c(C)c2cc3c(=O)c(CCl)coc3c(C)c2oc1=O"
  RESULT: "> 100 µM (inactive)"
- MOLECULE: "COc1cc(OCc2ccc3nc(-c4ccccc4)c(N)nc3c2)cc(OC)c1OC"
  RESULT: "18.7 µM (inactive)"
- MOLECULE: "Cc1cccc(C)c1NC(=O)CCC(=O)CC(=O)C(C)C"
  RESULT: "> 100 µM (inactive)"
- MOLECULE: "CSc1nc2c(ncn2C2OC(CO)C(O)C(O)C2O)c(=O)[nH]1 (stereo not drawn)"
  RESULT: "> 100 µM (inactive)"
- MOLECULE: "COc1ccc(CCCNC(=O)c2cc(OC)c(OC)cc2CCO)cc1OC"
  RESULT: "> 100 µM (inactive)"
